Recorded IC50 values for a group of molecules are listed next.
# METHOD: Displacement of [3H]DTG from sigma opioid receptor of homogenized guinea pig whole brain
State just the number; it will be interpreted in nM.

These solved cases illustrate the format of a correct answer.
- STRUCTURE: "COc1ccc(N=C(N)NC23CC4CC(CC(C4)C2)C3)c(C)c1"
  U: "nM"
  RECORDED_RESULT: 7
- STRUCTURE: "COc1ccccc1N=C(N)NC12CC3CC(CC(C3)C1)C2"
  U: "nM"
  RECORDED_RESULT: 17
- STRUCTURE: "NC(=Nc1ccccc1I)NC12CC3CC(CC(C3)C1)C2"
  U: "nM"
  RECORDED_RESULT: 6.2
- STRUCTURE: "COc1cccc(NC(N)=NC23CC4CC(CC(C4)C2)C3)c1"
  U: "nM"
  RECORDED_RESULT: 7
- STRUCTURE: "COc1ccc(NC(N)=NC23CC4CC(CC(C4)C2)C3)cc1"
  U: "nM"
  RECORDED_RESULT: 10
- STRUCTURE: "Cc1cc(F)ccc1N=C(N)NC12CC3CC(CC(C3)C1)C2"
  U: "nM"
  RECORDED_RESULT: 3.2

Turning to the following molecule.
stdin: Requested field: IC50. Item: `NC(=NC12CC3CC(CC(C3)C1)C2)Nc1cccc(I)c1`
stdout: 8
